# measurementTarget: Estrogen receptor (Ovis aries) (UniProt P49885+Q9TU15)
Friendly reminder: RAC below 9 is 1 (yes), at or above is 0 (no).

For "COc1ccc2c(c1)CC[C@@H]1[C@@H]2CC[C@]2(C)C(=O)CC[C@@H]12" , is the recorded RAC below the cut-off of 9?
0 (no)

For CCC(c1ccc(O)cc1)C(CC)c1ccc(O)c(Br)c1 (stereo not drawn) , is the recorded RAC below the cut-off of 9?
0 (no)

For "C[C@]12CC[C@@H]3c4cc(I)c(O)cc4CC[C@H]3[C@@H]1CC[C@@H]2O" , is the recorded RAC below the cut-off of 9?
1 (yes)

For CCC(c1ccc(O)c(I)c1)C(CC)c1cc(I)c(O)c(I)c1 (stereo not drawn) , is the recorded RAC below the cut-off of 9?
1 (yes)

For CCC(c1cc(Br)c(O)c(Br)c1)C(CC)c1cc(Br)c(O)c(Br)c1 (stereo not drawn) , is the recorded RAC below the cut-off of 9?
1 (yes)

For CCC(c1cc(I)c(O)c(I)c1)C(CC)c1cc(I)c(O)c(I)c1 (stereo not drawn) , is the recorded RAC below the cut-off of 9?
1 (yes)

For CCC(c1ccc(O)c(I)c1)C(CC)c1ccc(O)c(I)c1 (stereo not drawn) , is the recorded RAC below the cut-off of 9?
1 (yes)

###

Reported values: RAC for Estrogen receptor (Ovis aries) (UniProt P49885+Q9TU15), one per item.
# respond with the number and nothing more

Tell me the measured RAC of "CC[C@H](c1ccc(O)cc1)[C@@H](CC)c1ccc(O)cc1" , please.
300

Tell me the measured RAC of "C[C@]12CC[C@@H]3c4ccc(O)cc4CC[C@H]3[C@@H]1C[C@@H](I)[C@@H]2O" , please.
100

Tell me the measured RAC of "C[C@]12CC[C@@H]3c4ccc(O)c(Br)c4CC[C@H]3[C@@H]1CC[C@@H]2O" , please.
10

Tell me the measured RAC of "C[C@]12CC[C@@H]3c4cc(F)c(O)cc4CC[C@H]3[C@@H]1CC[C@@H]2O" , please.
86

Tell me the measured RAC of "C[C@]12CC[C@@H]3c4ccc(O)cc4CC[C@H]3[C@@H]1C[C@@H](Br)[C@H]2O" , please.
4.8

Tell me the measured RAC of "COc1ccc2c(c1)CC[C@@H]1[C@@H]2CC[C@]2(C)C(=O)[C@H](Cl)C[C@@H]12" , please.
0.48

Tell me the measured RAC of "C[C@]12CC[C@@H]3c4ccc(O)cc4CC[C@H]3[C@@H]1C[C@@H](Cl)[C@@H]2O" , please.
100

Tell me the measured RAC of "C[C@]12CC[C@@H]3c4ccc(O)cc4CC[C@H]3[C@@H]1C[C@H](I)[C@@H]2O" , please.
57

Tell me the measured RAC of "C[C@]12CC[C@@H]3c4cc(Br)c(O)cc4CC[C@H]3[C@@H]1CC[C@@H]2O" , please.
1.2

Tell me the measured RAC of CCC(c1ccc(O)cc1)C(CC)c1cc(I)c(O)c(I)c1 (stereo not given) , please.
1.9

Tell me the measured RAC of "C[C@]12CC[C@@H]3c4ccc(O)c(F)c4CC[C@H]3[C@@H]1CC[C@@H]2O" , please.
128

Tell me the measured RAC of "COc1ccc2c(c1)CC[C@@H]1[C@@H]2CC[C@]2(C)C(=O)[C@@H](Br)C[C@@H]12" , please.
0.14

Tell me the measured RAC of CCC(c1ccc(O)c(F)c1)C(CC)c1ccc(O)c(F)c1 (stereo not given) , please.
64

Tell me the measured RAC of CCC(c1ccc(O)cc1)C(CC)c1ccc(O)c(F)c1 (stereo not given) , please.
205

Tell me the measured RAC of CCC(c1ccc(O)c(Br)c1)C(CC)c1cc(Br)c(O)c(Br)c1 (stereo not given) , please.
0.72

Tell me the measured RAC of CCC(c1ccc(O)cc1)C(CC)c1ccc(O)c(I)c1 (stereo not given) , please.
14

Tell me the measured RAC of "COc1ccc2c(c1)CC[C@@H]1[C@@H]2CC[C@]2(C)C(=O)[C@H](Br)C[C@@H]12" , please.
3.5

Tell me the measured RAC of CCC(c1ccc(O)c(Br)c1)C(CC)c1ccc(O)c(Br)c1 (stereo not given) , please.
2.6

Tell me the measured RAC of "C[C@]12CC[C@@H]3c4ccc(O)cc4CC[C@H]3[C@@H]1C[C@@H](Br)[C@@H]2O" , please.
127

Tell me the measured RAC of "C[C@]12CC[C@@H]3c4ccc(O)cc4CC[C@H]3[C@@H]1C[C@H](Br)[C@@H]2O" , please.
4.7
